Experiment: logP determination by retention times (calibration with alkan-2-ones)
Conditions: logP, * HPLC reversed-phase C18, 40° C., mobile phase 0.1% aqueous formic acid and acetonitrile, linear gradient 10% to 95% acetonitrile
Please go through the items and note down their chromatographic logP.

# chromatographic logP (compound: CCc1nc(C)c(-c2ccnc(Nc3ccc(F)c(F)c3)n2)s1 [Example 755] ) is 3.44

# chromatographic logP (compound: COc1cccc(Nc2nccc(-c3sc(SC)nc3C)n2)c1 [Example 449] ) is 3.33

# chromatographic logP (compound: Cc1nc(C)c(-c2ccnc(Nc3ccc(N4CCCC4=O)cc3)n2)s1 [Example 749] ) is 1.99

# chromatographic logP (compound: Cc1nc(C2CC2)sc1-c1ccnc(Nc2ccc(N(C)C)cc2)n1 [Example 555] ) is 1.63

# chromatographic logP (compound: COCC(C)Nc1nc(C)c(-c2ccnc(Nc3ccc(F)cc3)n2)s1 (stereo not shown) [Example 488] ) is 2

# chromatographic logP (compound: COCCNc1nc(C)c(-c2ccnc(Nc3cc(OC)c(OC)c(OC)c3)n2)s1 [Example 679] ) is 1.74

# chromatographic logP (compound: Cc1nc(C(C)C)sc1-c1ccnc(Nc2ccc(F)cc2)n1 [Example 485] ) is 3.58

# chromatographic logP (compound: Cc1nc(C2CC2)sc1-c1ccnc(Nc2ccc3c(c2)OCO3)n1 [Example 617] ) is 2.96

# chromatographic logP (compound: COCCNc1nc(C)c(-c2ccnc(Nc3ccc(NS(C)(=O)=O)cc3)n2)s1 [Example 691] ) is 1.39

# chromatographic logP (compound: COCc1nc(C)c(-c2ccnc(Nc3ccc(CNC(=O)OC(C)(C)C)cc3)n2)s1 [Example 643] ) is 2.99

# chromatographic logP (compound: Cc1nc(C(C)C)sc1-c1ccnc(Nc2ccc3c(c2)OCO3)n1 [Example 619] ) is 3.25

# chromatographic logP (compound: COC(=O)Nc1ccc(Nc2nccc(-c3sc(C4CC4)nc3C)n2)cc1 [Example 672] ) is 2.51

# chromatographic logP (compound: CC(=O)N(Cc1cccc(Nc2nccc(-c3sc(C4CC4)nc3C)n2)c1)C(C)=O [Example 621] ) is 1.87

# chromatographic logP (compound: COCCCNc1nc(C)c(-c2ccnc(Nc3ccccc3)n2)s1 [Example 725] ) is 1.81

# chromatographic logP (compound: CCc1nc(C)c(-c2ccnc(Nc3cccc(Cl)c3)n2)s1 [Example 424] ) is 3.72

# chromatographic logP (compound: CCc1nc(C)c(-c2ccnc(N(C(C)=O)c3cccc(C(C)=O)c3)n2)s1 [Example 671] ) is 2.23

# chromatographic logP (compound: CCc1nc(C)c(-c2ccnc(N(C(C)=O)c3ccccc3)n2)s1 [Example 668] ) is 2.33

# chromatographic logP (compound: COCc1nc(C)c(-c2ccnc(Nc3ccc(Cl)cc3)n2)s1 [Example 465] ) is 3.29

# chromatographic logP (compound: CCc1nc(C)c(-c2ccnc(Nc3ccc(OCC(C)(C)C)nc3)n2)s1 [Example 721] ) is 4.23

# chromatographic logP (compound: COc1ccc(Nc2nccc(-c3sc(SC)nc3C)n2)cn1 [Example 522] ) is 2.67

# chromatographic logP (compound: CCCC(=O)c1ccc(Nc2nccc(-c3sc(CC)nc3C)n2)cc1 [Example 733] ) is 3.5

# chromatographic logP (compound: COCCCNc1nc(C)c(-c2ccnc(Nc3cccc(C(C)=O)c3)n2)s1 [Example 738] ) is 1.75

# chromatographic logP (compound: Cc1cc(Nc2nccc(-c3sc(NCC4CCCO4)nc3C)n2)ccc1F (stereo not shown) [Example 483] ) is 2.03

# chromatographic logP (compound: COc1cc(Nc2nccc(-c3sc(NCC4CCCO4)nc3C)n2)cc(OC)c1 (stereo not shown) [Example 719] ) is 2.02

# chromatographic logP (compound: COCC(C)Nc1nc(C)c(-c2ccnc(Nc3ccc(NC(C)=O)cc3)n2)s1 (stereo not shown) [Example 578] ) is 1.43

# chromatographic logP (compound: Cc1nc(C)c(-c2ccnc(Nc3ccc(N(C)C)c(Cl)c3)n2)s1 [Example 674] ) is 2

# chromatographic logP (compound: COCCNc1nc(C)c(-c2ccnc(Nc3ccc(NC(C)=O)cc3)n2)s1 [Example 683] ) is 1.35

# chromatographic logP (compound: CCc1nc(C)c(-c2ccnc(Nc3ccc(OC)c(O)c3)n2)s1 [Example 791] ) is 2.09

# chromatographic logP (compound: COCCNc1nc(C)c(-c2ccnc(Nc3cccc([N+](=O)[O-])c3)n2)s1 [Example 781] ) is 1.97

# chromatographic logP (compound: c1ccc(Nc2nccc(-c3cnc(-c4ccccc4)s3)n2)cc1 [Example 787] ) is 3.97

# chromatographic logP (compound: COCCNc1nc(C)c(-c2ccnc(Nc3ccc(OC)c(OC)c3)n2)s1 [Example 800] ) is 1.55

# chromatographic logP (compound: COCc1nc(C)c(-c2ccnc(Nc3cccc(CNC(=O)OC(C)(C)C)c3)n2)s1 [Example 639] ) is 2.94

# chromatographic logP (compound: COc1cccc(Nc2nccc(-c3sc(NCC4CCCO4)nc3C)n2)c1 (stereo not shown) [Example 451] ) is 1.94

# chromatographic logP (compound: Clc1ccc(-c2ncc(-c3ccnc(Nc4cccc(Cl)c4)n3)s2)cc1 [Example 795] ) is 5.57

# chromatographic logP (compound: COCCNc1nc(C)c(-c2ccnc(Nc3cccc(NC(C)=O)c3)n2)s1 [Example 682] ) is 1.36

# chromatographic logP (compound: Cc1nc(-c2cccnc2)sc1-c1ccnc(Nc2ccccc2)n1 [Example 715] ) is 3.04

# chromatographic logP (compound: CC(=O)c1cccc(Nc2nccc(-c3sc(C)nc3C(F)F)n2)c1 [Example 709] ) is 2.64
